# Tested system: ScHse1
# Assay details: SPOT peptide array binding signal intensity (averaged, normalized) (arbitrary units (background-subtracted, floor 0; scale differs between SH3 domains)); higher = stronger binding of the SH3 domain to the peptide
Recorded endpoint: SPOT peptide array binding signal intensity
Give bare numbers.

Would you please look over these solved cases?
- Binder: "RVRKTHVPASKRPSG"
  Meas value: 469
- Binder: "LRWRHKFFLPAIAAI"
  Meas value: 1040
- Binder: "YSRKKLPVVLSKMTL"
  Meas value: 370
- Binder: "TKRKRPARLIFYDSK"
  Meas value: 1060

// batch mode: one SPOT peptide array binding signal intensity value per listed entry
1. RRARRQMGIPTISQV
2. ALRRRLPVTRSKINW
3. NMLSRPRLAKLPSIR
4. LKHGWKPLRPIKLIS
5. NAGIRPKFILALNDE

[reply]
2110
1800
2110
478
628

// batch mode: one SPOT peptide array binding signal intensity value per listed entry
1. VRTRRRPPPPPIPST
2. QFDLKMPSKPIHNLK
3. VGFRLALKFPSRITG

[reply]
1. 186
2. 57
3. 3980
